target-system: Bromodomain-containing protein 4 (Homo sapiens)
assay-details: Binding affinity to human BRD4 domain 1 (unknown origin) assessed as dissociation constant by isothermal titration calorimetry assay
test-parameters: read-out: Kd
pKd: −log10 of the molar value.
Criterion: pKd meeting or surpassing 6. Met: yes (1). Not met: no (0).

[[record]]
chemical_structure = "CCc1c(C(=O)Nc2cccc(CCC(=O)NO)c2)[nH]c(C)c1C(C)=O"
group = "no (0)"

[[record]]
chemical_structure = "CCc1c(C(=O)Nc2cc(/C=C/C(=O)NO)ccc2O)[nH]c(C)c1C(C)=O"
group = "no (0)"

[[record]]
chemical_structure = "CCc1c(C(=O)Nc2cccc(CCC(=O)OC)c2)[nH]c(C)c1C(C)=O"
group = "no (0)"

[[record]]
chemical_structure = "CCc1c(C(=O)Nc2cccc(/C=C/C(=O)NO)c2)[nH]c(C)c1C(C)=O"
group = "no (0)"

[[record]]
chemical_structure = "CCc1c(C(=O)Nc2cccc(CCC(=O)Nc3ccccc3N)c2)[nH]c(C)c1C(C)=O"
group = "no (0)"

[[record]]
chemical_structure = "CCc1c(C(=O)Nc2cc(S(=O)(=O)Nc3cccc(/C=C/C(=O)NO)c3)ccc2OC)[nH]c(C)c1C(C)=O"
group = "no (0)"

[[record]]
chemical_structure = "CCc1c(C(=O)Nc2cc(/C=C/C(=O)NO)ccc2OC)[nH]c(C)c1C(C)=O"
group = "no (0)"

[[record]]
chemical_structure = "COC(=O)CCCCCCCOc1ccc(S(=O)(=O)N2CCOCC2)cc1NC(=O)c1c2c(c(C)n1C)C(=O)CCCC2"
group = "yes (1)"

[[record]]
chemical_structure = "Cc1[nH]c(C(=O)Nc2cc(S(=O)(=O)N3CCOCC3)ccc2OCCCCCCCC(=O)NO)c2c1C(=O)CCCC2"
group = "yes (1)"


###

assay-details: Nonlethal toxicity in zebrafish embryos assessed as embryo survival at 0.5 uM after 72 hrs by visual analysis (reference value: 100%)
Assay type: organism-based, Danio rerio
test-parameters: in vivo
observable: survival at 72 h, 0.5 µM (%)

[[record]]
chemical_structure = "Cc1[nH]c(C(=O)Nc2cc(S(=O)(=O)N3CCOCC3)ccc2OCCCCCCCC(=O)NO)c2c1C(=O)CCCC2"
observed_measurement = 100


###

Entries annotated with measured log10 of IC50
target-system: UniProtKB Q9UBN7
Sequence (Q9UBN7 whole entry): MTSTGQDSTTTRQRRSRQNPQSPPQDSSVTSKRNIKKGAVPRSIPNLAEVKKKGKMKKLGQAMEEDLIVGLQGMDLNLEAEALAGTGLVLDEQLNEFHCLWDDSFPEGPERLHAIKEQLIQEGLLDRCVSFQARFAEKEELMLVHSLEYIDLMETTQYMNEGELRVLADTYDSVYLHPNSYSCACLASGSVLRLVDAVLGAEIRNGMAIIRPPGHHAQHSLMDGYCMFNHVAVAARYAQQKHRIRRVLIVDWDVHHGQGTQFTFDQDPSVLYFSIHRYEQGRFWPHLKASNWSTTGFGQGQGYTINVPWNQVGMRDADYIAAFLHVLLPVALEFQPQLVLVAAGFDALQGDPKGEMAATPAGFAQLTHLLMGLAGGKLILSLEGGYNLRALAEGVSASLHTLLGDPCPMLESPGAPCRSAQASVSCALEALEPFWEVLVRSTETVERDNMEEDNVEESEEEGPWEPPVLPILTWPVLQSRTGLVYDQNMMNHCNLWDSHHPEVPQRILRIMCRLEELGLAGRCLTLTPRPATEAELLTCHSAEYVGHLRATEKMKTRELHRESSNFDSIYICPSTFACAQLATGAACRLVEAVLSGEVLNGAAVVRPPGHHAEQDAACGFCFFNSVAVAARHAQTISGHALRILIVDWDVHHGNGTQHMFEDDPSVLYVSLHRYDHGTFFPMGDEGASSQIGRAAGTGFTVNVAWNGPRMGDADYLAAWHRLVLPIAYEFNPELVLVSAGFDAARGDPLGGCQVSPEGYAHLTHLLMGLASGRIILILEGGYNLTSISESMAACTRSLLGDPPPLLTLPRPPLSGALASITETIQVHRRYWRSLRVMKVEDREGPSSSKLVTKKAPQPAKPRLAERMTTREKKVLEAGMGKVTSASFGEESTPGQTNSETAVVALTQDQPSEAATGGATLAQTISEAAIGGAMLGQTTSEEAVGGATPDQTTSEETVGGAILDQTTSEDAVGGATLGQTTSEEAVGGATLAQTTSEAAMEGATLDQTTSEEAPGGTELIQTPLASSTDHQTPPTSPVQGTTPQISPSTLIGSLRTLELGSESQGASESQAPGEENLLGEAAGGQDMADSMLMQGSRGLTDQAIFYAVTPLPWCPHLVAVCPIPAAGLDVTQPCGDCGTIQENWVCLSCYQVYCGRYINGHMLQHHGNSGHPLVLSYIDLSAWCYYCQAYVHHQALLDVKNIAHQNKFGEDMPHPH
assay-details: Inhibition of human recombinant HDAC6 assessed as fluorescence using fluorogenic substrate ZMAL incubated for 90 min by microplate reader
observable: log10 of IC50 (log10 of the value in nM)

[[record]]
chemical_structure = "Cn1cccc1C(=O)Nc1cccc(CCC(=O)NO)c1"
observable = "log10 of IC50"
observed_measurement = 2.79

[[record]]
chemical_structure = "COc1ccc(S(=O)(=O)n2ccc(/C=C/C(=O)NO)c2)cc1NC(=O)c1[nH]c(C)c2c1CCCCC2=O"
observable = "log10 of IC50"
observed_measurement = 1.66

[[record]]
chemical_structure = "CCc1c(C(=O)Nc2cc(/C=C/C(=O)NO)ccc2OC)[nH]c(C)c1C(C)=O"
observable = "log10 of IC50"
observed_measurement = 1.62

[[record]]
chemical_structure = "CCc1c(C(=O)Nc2cccc(/C=C/C(=O)NO)c2)[nH]c(C)c1C(C)=O"
observable = "log10 of IC50"
observed_measurement = 1.65

[[record]]
chemical_structure = "CCc1c(C(=O)Nc2cccc(CCC(=O)NO)c2)[nH]c(C)c1C(C)=O"
observable = "log10 of IC50"
observed_measurement = 2.82

[[record]]
chemical_structure = "Cc1c2c(c(C(=O)Nc3cc(S(=O)(=O)N4CCOCC4)ccc3OCCCCCCCC(=O)NO)n1C)CCCCC2=O"
observable = "log10 of IC50"
observed_measurement = 2.51

[[record]]
chemical_structure = "CCc1c(C(=O)Nc2cc(S(=O)(=O)Nc3cccc(/C=C/C(=O)NO)c3)ccc2OC)[nH]c(C)c1C(C)=O"
observable = "log10 of IC50"
observed_measurement = 1.86

[[record]]
chemical_structure = "CCc1c(C(=O)Nc2cc(/C=C/C(=O)NO)ccc2O)[nH]c(C)c1C(C)=O"
observable = "log10 of IC50"
observed_measurement = 1.90

[[record]]
chemical_structure = "Cc1[nH]c(C(=O)Nc2cc(S(=O)(=O)N3CCOCC3)ccc2OCCCCCCCC(=O)NO)c2c1C(=O)CCCC2"
observable = "log10 of IC50"
observed_measurement = 1.83

